target: M4 muscarinic receptor (Homo sapiens, UniProt P08173)
Construct: expressed in transfected cells; host or cells: CHO cells (M4-CHO, under puromycin, zeocin and blasticidin selection)
Sequence (P08173 whole entry): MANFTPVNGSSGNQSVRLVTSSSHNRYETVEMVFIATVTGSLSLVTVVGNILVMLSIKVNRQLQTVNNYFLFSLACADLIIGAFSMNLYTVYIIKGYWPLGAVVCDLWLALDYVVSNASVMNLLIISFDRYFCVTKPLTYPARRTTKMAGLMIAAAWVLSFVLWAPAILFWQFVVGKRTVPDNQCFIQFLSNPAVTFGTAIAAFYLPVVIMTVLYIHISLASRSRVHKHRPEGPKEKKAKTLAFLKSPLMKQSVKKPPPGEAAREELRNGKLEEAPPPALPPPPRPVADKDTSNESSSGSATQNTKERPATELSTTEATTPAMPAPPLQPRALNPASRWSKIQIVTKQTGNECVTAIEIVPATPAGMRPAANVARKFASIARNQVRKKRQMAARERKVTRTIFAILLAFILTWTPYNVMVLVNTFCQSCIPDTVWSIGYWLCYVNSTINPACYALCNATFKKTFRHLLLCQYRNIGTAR
assay.overview: Functional mobilization of intracellular calcium (FLIPR, Fluo-3), M4-CHO cells
Assay type: cell-based
test.settings: compound nos. 1-454; 100% efficacy is the maximum response obtained with the Carbachol control; read-out: M4 Efficacy

compound: CC(=O)N1CC2(CCN(C3CCN(C(=O)OC4CCC4)CC3)CC2)c2cc(F)ccc21
Emax: > 70%
--
compound: CC(C)C(=O)N[C@H]1CC2(CCN(C[C@H]3C[C@H]4CC[C@H]3C4)CC2)c2ccccc21
Emax: 55 to 70%
--
compound: CS(=O)(=O)N1CC2(CCN(C3CC4CCC(C3)N4C(=O)O[C@@H]3CCOC3)CC2)c2cc(F)ccc21 (stereo partly shown)
Emax: 55 to 70%
--
compound: CCOC(=O)N1C2CCC1CC(N1CCC3(CC1)CNc1ccc(Cl)cc13)C2 (stereo not shown)
Emax: > 70%
--
compound: CCOC(=O)N1CCC(C)(CN2CCC3(CC2)C[C@H](NC(C)=O)c2ccccc23)CC1
Emax: < 55%
--
compound: C#CCCOC(=O)N1C2CCC1CC(N1CCC3(CC1)CN(C(=O)N(C)C)c1ccc(F)cc13)C2 (stereo not shown)
Emax: > 70%
--
compound: CCCOC(=O)N1CCCC(N2CCC3(CC2)CN(C(C)=O)c2ccc(F)cc23)CC1 (stereo not shown)
Emax: < 55%

Source of measurements: patent US7858635B2
